src = PubChem BioAssay (NCATS)

Assay Text: Quantitative High-Throughput drug screen in 47 multiple myeloma cell lines against the NCATS MIPE library collection: Karpas25_ECACC cell viability assay (AID 1918968; also: nearly all actives have a fitted effect of over 35% in size)
Assay Setup: Karpas25 myeloma viability, CellTiter-Glo ATP, 48 h; series mostly up to 45.8 µM
Results filed as inconclusive are left out. Calls of active or inactive are those of the source. Calls follow the shape of the dose curve; as a rule, active = well fitted cell-killing curve with a large enough effect; inconclusive = small, poorly fitted or top-dose-only effect, or effect the other way; inactive = no such curve, though single readings can be large or run the other way.
Bench note: report the call from active, inactive

IN: What outcome does the record of this test show for `NC(=O)N1CCC(CC(=O)N2CCC([C@H]3c4ncc(Br)cc4CCc4cc(Cl)cc(Br)c43)CC2)CC1` ?
OUT: active

IN: What outcome does the record of this test show for `CC(=O)[C@]1(O)Cc2c(O)c3c(c(O)c2[C@@H](O[C@H]2C[C@H](N)[C@@H](O)[C@H](C)O2)C1)C(=O)c1ccccc1C3=O` ?
OUT: active

IN: What outcome does the record of this test show for `Nc1nc2c(c(=O)[nH]1)N(C=O)[C@H](CNc1ccc(C(=O)N[C@@H](CCC(=O)O)C(=O)O)cc1)CN2` ?
OUT: inactive

IN: What outcome does the record of this test show for `CCCc1nc(C(C)(C)O)c(C(=O)O)n1Cc1ccc(-c2ccccc2-c2nn[nH]n2)cc1` ?
OUT: inactive
